Values compiled from patent US9745348B2.

# test: in vitro
# Type: cell-based
# experimental parameters: human, neonatal fibroblasts (HDFn cells)
Where no end group is shown, it is not given here.

substance: GIKKKIIKKIIKII-NH2 [GIK, GIK(KKII)2 KII-NH2]
viability at 72 h, 25 µM (%): 78

substance: GKIKKIIKKIIKII-NH2 [GKI, GKI(KKII)2 KII-NH2]
viability at 72 h, 25 µM (%): 78

substance: GLLKKLLKKLLKKL-NH2 [GL, G(LLKK)3 L-NH2]
viability at 72 h, 25 µM (%): 81

substance: GIIKKIIKKIIKKIIKKI-NH2 [Helix G4, G(IIKK)4 I-NH2]
viability at 72 h, 25 µM (%): 74

###

# test: in vitro
# Assay type: cell-based
# experimental parameters: human, neonatal fibroblasts (HDFn cells)
# Protocol: MTT assay: Cell viability and proliferation is widely assessed by the MTT assay as already described previously. The fibroblasts cells, Neonatal (HDFn) and Adult (HDFa), were both grown until greater than 80% confluent. The cells were then harvested and seeded into micro well plate at cell densities of 5000 cells/well in a volume […] of medium. After 24 hour incubation the culture medium was replaced with fresh medium containing an appropriate amount of the peptide for investigation.
Where no end group is shown, it is not given here.
Item-by-item account of viability at 24 h, 25 µM

substance: GLLKKLLKKLLKKL-NH2 [GL, G(LLKK)3 L-NH2]
viability at 24 h, 25 µM (%): 88

substance: GIIKKIIKKIIKKIIKKI-NH2 [Helix G4, G(IIKK)4 I-NH2]
viability at 24 h, 25 µM (%): 85

substance: GIKKKIIKKIIKII-NH2 [GIK, GIK(KKII)2 KII-NH2]
viability at 24 h, 25 µM (%): 98

substance: GKIKKIIKKIIKII-NH2 [GKI, GKI(KKII)2 KII-NH2]
viability at 24 h, 25 µM (%): 87

###

# test: MTT viability of fibroblasts over three days
# Assay type: cell-based, human
# experimental parameters: human, adult fibroblasts (HDFa cells)
Where no end group is shown, it is not given here.
viability at 48 h, 50 µM strictly under 80% means met; at 80% or over means not met.

substance: GIIKKIIKKI-NH2 [Helix G2, G(IIKK)2 I-NH2]
group: not met
--
substance: GLLKKLLKKLLKKL-NH2 [GL, G(LLKK)3 L-NH2]
group: met
--
substance: GIIKKIIKKIIKKI-NH2 [Helix G3, G(IIKK)3 I-NH2]
group: not met

###

# test: MTT viability of fibroblasts over three days
# Format: cell-based, human
# experimental parameters: human, adult fibroblasts (HDFa cells)
Where a SMILES comes first, the peptide text is derived from it. [ ]: non-standard residue; d: D form. Orn = NCCC[C@H](N)C(=O)O
quantity name: viability at 72 h, 5 µM

molecule: CC[C@H](C)[C@H](NC(=O)[C@H](CCCN)NC(=O)[C@H](CCCN)NC(=O)[C@@H](NC(=O)[C@@H](NC(=O)[C@H](CCCN)NC(=O)[C@H](CCCN)NC(=O)[C@@H](NC(=O)[C@@H](NC(=O)[C@H](CCCN)NC(=O)[C@H](CCCN)NC(=O)[C@@H](NC(=O)[C@@H](NC(=O)CN)[C@@H](C)CC)[C@@H](C)CC)[C@@H](C)CC)[C@@H](C)CC)[C@@H](C)CC)[C@@H](C)CC)C(N)=O [GO, G(IIOO)3 I-NH2] (H-GII[Orn][Orn]II[Orn][Orn]II[Orn][Orn]I-NH2)
quantity name: viability at 72 h, 5 µM
result: 90%

###

# test: in vitro
# Format: cell-based
# experimental parameters: human, neonatal fibroblasts (HDFn cells)
# Experimental: MTT assay: Cell viability and proliferation is widely assessed by the MTT assay as already described previously. The fibroblasts cells, Neonatal (HDFn) and Adult (HDFa), were both grown until greater than 80% confluent. The cells were then harvested and seeded into micro well plate at cell densities of 5000 cells/well in a volume […] of medium. After 24 hour incubation the culture medium was replaced with fresh medium containing an appropriate amount of the peptide for investigation.
Where a SMILES comes first, the peptide text is derived from it. [ ]: non-standard residue; d: D form. Orn = NCCC[C@H](N)C(=O)O

compound: CC[C@H](C)[C@H](NC(=O)[C@H](CCCN)NC(=O)[C@H](CCCN)NC(=O)[C@@H](NC(=O)[C@@H](NC(=O)[C@H](CCCN)NC(=O)[C@H](CCCN)NC(=O)[C@@H](NC(=O)[C@@H](NC(=O)[C@H](CCCN)NC(=O)[C@H](CCCN)NC(=O)[C@@H](NC(=O)[C@@H](NC(=O)CN)[C@@H](C)CC)[C@@H](C)CC)[C@@H](C)CC)[C@@H](C)CC)[C@@H](C)CC)[C@@H](C)CC)C(N)=O [GO, G(IIOO)3 I-NH2] (H-GII[Orn][Orn]II[Orn][Orn]II[Orn][Orn]I-NH2)
viability at 24 h, 100 µM, %: 83

###

# test: MTT viability of fibroblasts over three days
# Assay type: cell-based, human
# experimental parameters: human, adult fibroblasts (HDFa cells)
# Method: MTT assay: Cell viability and proliferation is widely assessed by the MTT assay as already described previously. The fibroblasts cells, Neonatal (HDFn) and Adult (HDFa), were both grown until greater than 80% confluent. […] After 24 hour incubation the culture medium was replaced with fresh medium containing an appropriate amount of the peptide for investigation. […]
Where no end group is shown, it is not given here.
Item-by-item account of viability at 24 h, 5 µM

substance: GIIKKIIKKIIKKI-NH2 [Helix G3, G(IIKK)3 I-NH2]
viability at 24 h, 5 µM (%): 91

substance: GIIKKIIKKIIKKIIKKI-NH2 [Helix G4, G(IIKK)4 I-NH2]
viability at 24 h, 5 µM (%): 90

substance: GIKKKIIKKIIKII-NH2 [GIK, GIK(KKII)2 KII-NH2]
viability at 24 h, 5 µM (%): 97

substance: GIIKKIIKKI-NH2 [Helix G2, G(IIKK)2 I-NH2]
viability at 24 h, 5 µM (%): 101

substance: GKIKKIIKKIIKII-NH2 [GKI, GKI(KKII)2 KII-NH2]
viability at 24 h, 5 µM (%): 95

substance: GLLKKLLKKLLKKL-NH2 [GL, G(LLKK)3 L-NH2]
viability at 24 h, 5 µM (%): 91

###

# test: MTT viability of fibroblasts over three days
# Format: cell-based, human
# experimental parameters: human, adult fibroblasts (HDFa cells)
Where a SMILES comes first, the peptide text is derived from it. [ ]: non-standard residue; d: D form. Orn = NCCC[C@H](N)C(=O)O
quantity name: viability at 24 h, 50 µM (%)

molecule: CC[C@H](C)[C@H](NC(=O)[C@H](CCCN)NC(=O)[C@H](CCCN)NC(=O)[C@@H](NC(=O)[C@@H](NC(=O)[C@H](CCCN)NC(=O)[C@H](CCCN)NC(=O)[C@@H](NC(=O)[C@@H](NC(=O)[C@H](CCCN)NC(=O)[C@H](CCCN)NC(=O)[C@@H](NC(=O)[C@@H](NC(=O)CN)[C@@H](C)CC)[C@@H](C)CC)[C@@H](C)CC)[C@@H](C)CC)[C@@H](C)CC)[C@@H](C)CC)C(N)=O [GO, G(IIOO)3 I-NH2] (H-GII[Orn][Orn]II[Orn][Orn]II[Orn][Orn]I-NH2)
units of measure: %
number: 95

###

Item-by-item account of viability at 24 h, 50 µM
# test: in vitro
# Format: cell-based
# experimental parameters: human, neonatal fibroblasts (HDFn cells)
Where no end group is shown, it is not given here.

substance: GLLKKLLKKLLKKL-NH2 [GL, G(LLKK)3 L-NH2]
viability at 24 h, 50 µM (%): 85

substance: GIIKKIIKKIIKKIIKKI-NH2 [Helix G4, G(IIKK)4 I-NH2]
viability at 24 h, 50 µM (%): 81

substance: GKIKKIIKKIIKII-NH2 [GKI, GKI(KKII)2 KII-NH2]
viability at 24 h, 50 µM (%): 81

substance: GIKKKIIKKIIKII-NH2 [GIK, GIK(KKII)2 KII-NH2]
viability at 24 h, 50 µM (%): 92

###

# test: in vitro
# Assay type: cell-based
# experimental parameters: human, neonatal fibroblasts (HDFn cells)
Where no end group is shown, it is not given here.
Item-by-item account of viability at 72 h, 100 µM
quantity name: viability at 72 h, 100 µM (%)

substance: GLLKKLLKKLLKKL-NH2 [GL, G(LLKK)3 L-NH2]
units of measure: %
number: 35

substance: GIKKKIIKKIIKII-NH2 [GIK, GIK(KKII)2 KII-NH2]
units of measure: %
number: 71

substance: GKIKKIIKKIIKII-NH2 [GKI, GKI(KKII)2 KII-NH2]
units of measure: %
number: 55

substance: GIIKKIIKKIIKKIIKKI-NH2 [Helix G4, G(IIKK)4 I-NH2]
units of measure: %
number: 53
